Data provenance: patent US10494415B2

molecules and their reported Kinetics koff
# target or test system: IGF2 (Homo sapiens, UniProt P01344)
# Sequence (P01344 25-91): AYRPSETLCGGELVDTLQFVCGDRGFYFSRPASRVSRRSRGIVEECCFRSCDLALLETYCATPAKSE
# measurement protocol: SPR (Biacore T200) of recombinant IGF2R domain 11 mutants on immobilised biotinylated IGF2
# Type: binding
# Parameters: purchased GroPep
# condition summary: Table 1; 25° C., HBS-EP pH 7.4
Use s⁻¹ as the unit, but write only the number.

Which measured Kinetics koff value corresponds to Q1632E: domain 11 HI loop mutant Q1632E, probably AB5 background (protein) MKSNEHDDCQVTNPSTGHLFDLSSLSGRAGFTAAYAKGWGVYMSICGENENCPPGVGACFGQTRISVGKANKRLRYVDQVLQLVYKDGSPCPSKSGLSYKSVISFVCRPEAGPTNRPMLISLDKETCTLFFSWHTPLACEQATECSV ?
0.0202

Which measured Kinetics koff value corresponds to AB5: IGF2R domain 11 with five AB loop mutations S1543A, E1544K, K1545G, G1546W, L1547G (YAKGWG) (protein) MKSNEHDDCQVTNPSTGHLFDLSSLSGRAGFTAAYAKGWGVYMSICGENENCPPGVGACFGQTRISVGKANKRLRYVDQVLQLVYKDGSPCPSKSGLSYKSVISFVCRPEAGPTNRPMLISLDKQTCTLFFSWHTPLACEQATECSV ?
0.0208

Which measured Kinetics koff value corresponds to Q1632L: domain 11 HI loop mutant Q1632L, probably AB5 background (protein) MKSNEHDDCQVTNPSTGHLFDLSSLSGRAGFTAAYAKGWGVYMSICGENENCPPGVGACFGQTRISVGKANKRLRYVDQVLQLVYKDGSPCPSKSGLSYKSVISFVCRPEAGPTNRPMLISLDKLTCTLFFSWHTPLACEQATECSV ?
0.0175
